- tested_target: KDM5A PHD3 finger with 5-fluorotryptophan at Trp18 and Trp28 (Homo sapiens) (UniProt P29375)
- protocol: ITC; H3K4me3 peptide (380 uM) titrated to KDM5A PHD3 fingers (28 uM); for AUX WT-KDM5A 190 uM peptide and 21 uM protein; 20 mM TRIS-HCl pH 7.5, 50 mM NaCl, 1 mM DTT; 19 injections; one set of sites model; 7-9 repeats (AUX WT in replicate)
Where no end group is shown, it is not given here. Me3 = trimethyl (trimethylated lysine, Kme3)
readout_type: Kd
Record the result as a number with its unit.

Task item: Consider the binder ARTK(Me3)QTARKS [H3K4me3 histone peptide (ARTKme3QTARKS)] . State its measured Kd.
Reply: 49 nM
